# Test system: viruses in water surrounding coral nubbins
# EXPERIMENT_SUMMARY: Viral abundance and viral enrichment in seawater surrounding coral nubbins (microcosm incubation)
# CONDITION_SET: incubation 12 h; seawater surrounding Acropora sp. nubbins; compound concentration per Table 2

COMPOUND: CCCCCCCCCCCCCCCC(=O)OC/C=C(C)/C=C/C=C(C)/C=C/C1=C(C)CCCC1(C)C [System D19, retinyl palmitate]
VALUE_UNITS: viruses ml^−1
Total viral abundances (TVN): 1.98E+06
//
COMPOUND: CC(=O)Oc1c(C)c(C)c2c(c1C)CCC(C)(CCC[C@H](C)CCC[C@H](C)CCCC(C)C)O2 (mixture of isomers) [System D17, DL-tocopherol-acetate]
VALUE_UNITS: viruses ml^−1
Total viral abundances (TVN): 2.83E+06
//
COMPOUND: CO[C@@]12[C@H](COC(N)=O)C3=C(C(=O)C(C)=C(N)C3=O)N1C[C@@H]1N[C@@H]12 [MITO, Mitomycin C, reference compound]
VALUE_UNITS: viruses ml^−1
Total viral abundances (TVN): 1.53E+06
//
COMPOUND: CC(C)(C)CC(C)(C)c1cc(Cc2cc(C(C)(C)CC(C)(C)C)cc(-n3nc4ccccc4n3)c2O)c(O)c(-n2nc3ccccc3n2)c1
VALUE_UNITS: viruses ml^−1
Total viral abundances (TVN): 2.99E+06
//
COMPOUND: CCCCC(CC)COC(=O)c1ccc(Nc2nc(Nc3ccc(C(=O)OCC(CC)CCCC)cc3)nc(Nc3ccc(C(=O)OCC(CC)CCCC)cc3)n2)cc1 (centres unmarked)
VALUE_UNITS: viruses ml^−1
Total viral abundances (TVN): 1.08E+06
//
COMPOUND: CCCCCCOC(=O)c1ccccc1C(=O)c1ccc(N(CC)CC)cc1O
VALUE_UNITS: viruses ml^−1
Total viral abundances (TVN): 2.63E+06
//
COMPOUND: CC1=C(/C=C/C(C)=C/C=C/C(C)=C/CO)C(C)(C)CCC1
VALUE_UNITS: viruses ml^−1
Total viral abundances (TVN): 1.97E+06
//
COMPOUND: Cc1c(C)c2c(c(C)c1O)CC[C@@](C)(CCC[C@H](C)CCC[C@H](C)CCCC(C)C)O2
VALUE_UNITS: viruses ml^−1
Total viral abundances (TVN): 1.46E+06

###

# Tested on: symbiotic zooxanthellae released from coral nubbins
# EXPERIMENT_SUMMARY: Zooxanthellae counts: zooxanthellae released in water surrounding coral nubbins
# Assay type: in vivo, Acropora sp.
# CONDITION_SET: of total released, end of incubation
So basically: is Percentage of healthy zooxanthellae released under 3%? Then class 1. Not under? Then class 0.

MOLECULE: CCCCCCCCCCCCCCCC(=O)OC/C=C(C)/C=C/C=C(C)/C=C/C1=C(C)CCCC1(C)C [System D19, retinyl palmitate]
ASSIGNED_LABEL: class 0
--
MOLECULE: CC1=C(/C=C/C(C)=C/C=C/C(C)=C/CO)C(C)(C)CCC1 [System D20, Retinol]
ASSIGNED_LABEL: class 0
--
MOLECULE: CCCCCCOC(=O)c1ccccc1C(=O)c1ccc(N(CC)CC)cc1O [System D25]
ASSIGNED_LABEL: class 1
--
MOLECULE: CCCCC(CC)COC(=O)c1ccc(Nc2nc(Nc3ccc(C(=O)OCC(CC)CCCC)cc3)nc(Nc3ccc(C(=O)OCC(CC)CCCC)cc3)n2)cc1 (centres unmarked) [System D24, ethylhexyl triazone]
ASSIGNED_LABEL: class 1
